molecular target: Group 3 secretory phospholipase A2 (Homo sapiens); experiment: human group III sPLA2 inhibitors, primary screen, biochemical, QFRET, BODIPY PC-A2 liposome substrate (AID 743126); conditions: QFRET BODIPY PC-A2 liposome hydrolysis, fluorescence; at 12.2 µM; active compounds read high;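 note: 0% = median of test compound wells and 100% = no enzyme DMSO wells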
Screen size: about 370,000 compounds; about 2,100 (0.57%) were called active. The full list was thinned out, with actives kept by preference.
quantity kind: inhibition (%)

[[record]]
molecule = "Nc1ccc2[nH]c(=S)sc2c1"
assay_target = "Group 3 secretory phospholipase A2 (Homo sapiens)"
quantity_kind = "inhibition"
unit_text = "%"
result_number = 1.91

[[record]]
molecule = "CCn1c(SCC(=O)Nc2ccccc2F)nc2c(c1=O)SC(C)C2 (stereo not drawn)"
assay_target = "Group 3 secretory phospholipase A2 (Homo sapiens)"
quantity_kind = "inhibition"
unit_text = "%"
result_number = 0.02

[[record]]
molecule = "Cc1ccccc1NC(=O)C1CCN(C(=O)NC2CCCCC2)CC1"
assay_target = "Group 3 secretory phospholipase A2 (Homo sapiens)"
quantity_kind = "inhibition"
unit_text = "%"
result_number = -4.04

[[record]]
molecule = "CCOCC(=O)NCc1ccc2c(c1)cc(C)n2C"
assay_target = "Group 3 secretory phospholipase A2 (Homo sapiens)"
quantity_kind = "inhibition"
unit_text = "%"
result_number = 12.3

[[record]]
molecule = "CN1C[C@]2(C=C3CCCCC3n3c(=O)n(-c4ccccc4)c(=O)n32)N=C1NC(=O)c1ccccc1 (stereo partly drawn)"
assay_target = "Group 3 secretory phospholipase A2 (Homo sapiens)"
quantity_kind = "inhibition"
unit_text = "%"
result_number = -6.07

[[record]]
molecule = "N#CC1(Nc2ccc(-c3ccc(Cl)cc3)cc2)CCCC1"
assay_target = "Group 3 secretory phospholipase A2 (Homo sapiens)"
quantity_kind = "inhibition"
unit_text = "%"
result_number = 23.6

[[record]]
molecule = "Nn1c(SCC(=O)Nc2ccc(S(N)(=O)=O)cc2)nnc1-c1n[nH]c2c1CCC2"
assay_target = "Group 3 secretory phospholipase A2 (Homo sapiens)"
quantity_kind = "inhibition"
unit_text = "%"
result_number = 9.17

[[record]]
molecule = "COc1ccc2c(C(C)c3ccc(N)cc3)cn(C)c2c1 (stereo not drawn)"
assay_target = "Group 3 secretory phospholipase A2 (Homo sapiens)"
quantity_kind = "inhibition"
unit_text = "%"
result_number = 9.83

[[record]]
molecule = "CC(C)(C)c1ccc(C(=O)Nc2cc(Cl)c(Br)cc2C(=O)O)cc1"
assay_target = "Group 3 secretory phospholipase A2 (Homo sapiens)"
quantity_kind = "inhibition"
unit_text = "%"
result_number = -12.9

[[record]]
molecule = "C=CCN1C(C(=O)OC)CN(Cc2cn(Cc3ccccc3)nn2)CCS1(=O)=O (stereo not drawn)"
assay_target = "Group 3 secretory phospholipase A2 (Homo sapiens)"
quantity_kind = "inhibition"
unit_text = "%"
result_number = 1.48

[[record]]
molecule = "CC(Sc1nncn1C)C(=O)Nc1ccccc1-c1ccccc1 (stereo not drawn)"
assay_target = "Group 3 secretory phospholipase A2 (Homo sapiens)"
quantity_kind = "inhibition"
unit_text = "%"
result_number = 1.14

[[record]]
molecule = "CCOc1ccc2[nH]c(=S)sc2c1"
assay_target = "Group 3 secretory phospholipase A2 (Homo sapiens)"
quantity_kind = "inhibition"
unit_text = "%"
result_number = 23.5

[[record]]
molecule = "CCc1cccc(CC)c1NC(=S)NCc1ccc2[nH]c(C)cc2c1"
assay_target = "Group 3 secretory phospholipase A2 (Homo sapiens)"
quantity_kind = "inhibition"
unit_text = "%"
result_number = 20.3

[[record]]
molecule = "O=C(CSc1nnc(COc2ccccc2)n1-c1ccc(Cl)cc1)Nc1ccc2c(c1)OCO2"
assay_target = "Group 3 secretory phospholipase A2 (Homo sapiens)"
quantity_kind = "inhibition"
unit_text = "%"
result_number = -14.5

[[record]]
molecule = "CN(C)C(=S)Nc1ccc(Br)cc1Cl"
assay_target = "Group 3 secretory phospholipase A2 (Homo sapiens)"
quantity_kind = "inhibition"
unit_text = "%"
result_number = 1.77

[[record]]
molecule = "COc1ccnc(NC(=S)N2CCN(c3ncc(C(F)(F)F)cc3Cl)CC2)c1"
assay_target = "Group 3 secretory phospholipase A2 (Homo sapiens)"
quantity_kind = "inhibition"
unit_text = "%"
result_number = 23.3

[[record]]
molecule = "CCn1c(SCC(C)=O)nc2sc3c(c2c1=O)CCCC3"
assay_target = "Group 3 secretory phospholipase A2 (Homo sapiens)"
quantity_kind = "inhibition"
unit_text = "%"
result_number = -63

[[record]]
molecule = "COC(=O)[C@]12C[C@H](CC(=O)NCCCN3CCCC3=O)C(=O)N(CCc3ccc(OC)c(OC)c3)C1=C[C@H](COCc1ccccc1)O[C@@H]2C"
assay_target = "Group 3 secretory phospholipase A2 (Homo sapiens)"
quantity_kind = "inhibition"
unit_text = "%"
result_number = 11.1

[[record]]
molecule = "CC(C(=O)Nc1ccccc1-c1ccccc1)N1CCOCC1 (stereo not drawn)"
assay_target = "Group 3 secretory phospholipase A2 (Homo sapiens)"
quantity_kind = "inhibition"
unit_text = "%"
result_number = 19.6

[[record]]
molecule = "Cc1cc(C)nc(NC(=S)N2CCN(c3ccc(C(F)(F)F)cn3)CC2)c1"
assay_target = "Group 3 secretory phospholipase A2 (Homo sapiens)"
quantity_kind = "inhibition"
unit_text = "%"
result_number = 11.2

[[record]]
molecule = "Cc1cc(=O)n(C)c(=O)n1CCCNc1ccccc1"
assay_target = "Group 3 secretory phospholipase A2 (Homo sapiens)"
quantity_kind = "inhibition"
unit_text = "%"
result_number = -0.01

[[record]]
molecule = "O=C(NCCCc1ccccc1)[C@H](Cc1ccccc1)NC1(C(=O)NCCc2c[nH]c3ccccc23)CCC1"
assay_target = "Group 3 secretory phospholipase A2 (Homo sapiens)"
quantity_kind = "inhibition"
unit_text = "%"
result_number = -86.7

[[record]]
molecule = "O=C(NNC(=O)C1CCN(c2ncccn2)CC1)c1ccccc1"
assay_target = "Group 3 secretory phospholipase A2 (Homo sapiens)"
quantity_kind = "inhibition"
unit_text = "%"
result_number = -1.66

[[record]]
molecule = "O=C(CCCCCN1C(=O)C2C3C=CC(C3)C2C1=O)Nc1ccccc1 (stereo not drawn)"
assay_target = "Group 3 secretory phospholipase A2 (Homo sapiens)"
quantity_kind = "inhibition"
unit_text = "%"
result_number = -2.11

[[record]]
molecule = "CCOC(=O)NN1C(=O)c2ccccc2NC1c1cccc(O)c1 (stereo not drawn)"
assay_target = "Group 3 secretory phospholipase A2 (Homo sapiens)"
quantity_kind = "inhibition"
unit_text = "%"
result_number = -3.61

[[record]]
molecule = "CSc1ccccc1NC(=O)CN(C)CC(=O)Nc1ccc(Cl)cc1[N+](=O)[O-]"
assay_target = "Group 3 secretory phospholipase A2 (Homo sapiens)"
quantity_kind = "inhibition"
unit_text = "%"
result_number = -3.92

[[record]]
molecule = "C=CCN1[C@@H](Cc2ccccc2)COc2cccc(N3CCSCC3)c2S1(=O)=O"
assay_target = "Group 3 secretory phospholipase A2 (Homo sapiens)"
quantity_kind = "inhibition"
unit_text = "%"
result_number = -0.87

[[record]]
molecule = "COC(=O)[C@]12C[C@H](CC(=O)NCC34CC5CC(CC(C5)C3)C4)C(=O)N(Cc3ccc(Cl)cc3Cl)C1=C[C@H](COCc1ccccc1)O[C@@H]2C"
assay_target = "Group 3 secretory phospholipase A2 (Homo sapiens)"
quantity_kind = "inhibition"
unit_text = "%"
result_number = -6.39

[[record]]
molecule = "O=C(NCC(=O)N1CCN(c2ncc(C(F)(F)F)cc2Cl)CC1)c1ccc(Br)o1"
assay_target = "Group 3 secretory phospholipase A2 (Homo sapiens)"
quantity_kind = "inhibition"
unit_text = "%"
result_number = -1.88

[[record]]
molecule = "CC(C)(C)C(=O)c1c(N)[nH]c(C(=O)c2ccccc2)c1-c1ccc(F)cc1"
assay_target = "Group 3 secretory phospholipase A2 (Homo sapiens)"
quantity_kind = "inhibition"
unit_text = "%"
result_number = 5.32

[[record]]
molecule = "S=C(Nc1ccc(Br)cc1Cl)NC1CCN(Cc2ccccc2)CC1"
assay_target = "Group 3 secretory phospholipase A2 (Homo sapiens)"
quantity_kind = "inhibition"
unit_text = "%"
result_number = 0.32

[[record]]
molecule = "Cc1ccc(-n2c(SCC(=O)Nc3ccc(S(=O)(=O)Nc4nccs4)cc3)nnc2-c2ccccn2)cc1"
assay_target = "Group 3 secretory phospholipase A2 (Homo sapiens)"
quantity_kind = "inhibition"
unit_text = "%"
result_number = -36.9

[[record]]
molecule = "Cc1[nH]c(N)nc(=S)c1CCCNc1ccccc1"
assay_target = "Group 3 secretory phospholipase A2 (Homo sapiens)"
quantity_kind = "inhibition"
unit_text = "%"
result_number = 23.8

[[record]]
molecule = "CC(C(=O)Nc1ccc(F)c(F)c1F)N1CCCCCC1 (stereo not drawn)"
assay_target = "Group 3 secretory phospholipase A2 (Homo sapiens)"
quantity_kind = "inhibition"
unit_text = "%"
result_number = 7.49

[[record]]
molecule = "CC(=O)NN1C(=O)c2ccccc2NC1c1ccccc1 (stereo not drawn)"
assay_target = "Group 3 secretory phospholipase A2 (Homo sapiens)"
quantity_kind = "inhibition"
unit_text = "%"
result_number = 4.64

[[record]]
molecule = "O=C(NCc1ccco1)C1CCCN(S(=O)(=O)c2ccc(Cl)s2)C1 (stereo not drawn)"
assay_target = "Group 3 secretory phospholipase A2 (Homo sapiens)"
quantity_kind = "inhibition"
unit_text = "%"
result_number = -7.36

[[record]]
molecule = "COCCN(C(=O)c1ccco1)c1nnc(-c2ccc(OC)cc2)s1"
assay_target = "Group 3 secretory phospholipase A2 (Homo sapiens)"
quantity_kind = "inhibition"
unit_text = "%"
result_number = -1.24

[[record]]
molecule = "CN(C(N)=NC(=O)/C=C/c1ccccc1)C(C#Cc1ccccc1)Cc1ccccc1 (stereo not drawn)"
assay_target = "Group 3 secretory phospholipase A2 (Homo sapiens)"
quantity_kind = "inhibition"
unit_text = "%"
result_number = 2.67

[[record]]
molecule = "O=C(C1CCCN1S(=O)(=O)c1ccccc1)N1CCc2ccccc2C1 (stereo not drawn)"
assay_target = "Group 3 secretory phospholipase A2 (Homo sapiens)"
quantity_kind = "inhibition"
unit_text = "%"
result_number = -2.35

[[record]]
molecule = "O=C(CCl)NC1CCCCN(Cc2cccc(C(F)(F)F)c2)C1=O (stereo not drawn)"
assay_target = "Group 3 secretory phospholipase A2 (Homo sapiens)"
quantity_kind = "inhibition"
unit_text = "%"
result_number = 7.99

[[record]]
molecule = "CC1CCN(c2ccc(C(=O)O)cc2NS(=O)(=O)c2ccc(Br)s2)CC1"
assay_target = "Group 3 secretory phospholipase A2 (Homo sapiens)"
quantity_kind = "inhibition"
unit_text = "%"
result_number = -18.5

[[record]]
molecule = "Cc1ccc(Cn2cc(COC(=O)N(C)Cc3ccccc3)nn2)cc1"
assay_target = "Group 3 secretory phospholipase A2 (Homo sapiens)"
quantity_kind = "inhibition"
unit_text = "%"
result_number = -5.61

[[record]]
molecule = "O=C(NCCc1c[nH]c2ccccc12)OCc1cn(-c2c(F)cccc2F)nn1"
assay_target = "Group 3 secretory phospholipase A2 (Homo sapiens)"
quantity_kind = "inhibition"
unit_text = "%"
result_number = -62.2

